The listing below reports pIC50 for compounds tested on UniProt:P35968.
Sequence (P35968 whole entry): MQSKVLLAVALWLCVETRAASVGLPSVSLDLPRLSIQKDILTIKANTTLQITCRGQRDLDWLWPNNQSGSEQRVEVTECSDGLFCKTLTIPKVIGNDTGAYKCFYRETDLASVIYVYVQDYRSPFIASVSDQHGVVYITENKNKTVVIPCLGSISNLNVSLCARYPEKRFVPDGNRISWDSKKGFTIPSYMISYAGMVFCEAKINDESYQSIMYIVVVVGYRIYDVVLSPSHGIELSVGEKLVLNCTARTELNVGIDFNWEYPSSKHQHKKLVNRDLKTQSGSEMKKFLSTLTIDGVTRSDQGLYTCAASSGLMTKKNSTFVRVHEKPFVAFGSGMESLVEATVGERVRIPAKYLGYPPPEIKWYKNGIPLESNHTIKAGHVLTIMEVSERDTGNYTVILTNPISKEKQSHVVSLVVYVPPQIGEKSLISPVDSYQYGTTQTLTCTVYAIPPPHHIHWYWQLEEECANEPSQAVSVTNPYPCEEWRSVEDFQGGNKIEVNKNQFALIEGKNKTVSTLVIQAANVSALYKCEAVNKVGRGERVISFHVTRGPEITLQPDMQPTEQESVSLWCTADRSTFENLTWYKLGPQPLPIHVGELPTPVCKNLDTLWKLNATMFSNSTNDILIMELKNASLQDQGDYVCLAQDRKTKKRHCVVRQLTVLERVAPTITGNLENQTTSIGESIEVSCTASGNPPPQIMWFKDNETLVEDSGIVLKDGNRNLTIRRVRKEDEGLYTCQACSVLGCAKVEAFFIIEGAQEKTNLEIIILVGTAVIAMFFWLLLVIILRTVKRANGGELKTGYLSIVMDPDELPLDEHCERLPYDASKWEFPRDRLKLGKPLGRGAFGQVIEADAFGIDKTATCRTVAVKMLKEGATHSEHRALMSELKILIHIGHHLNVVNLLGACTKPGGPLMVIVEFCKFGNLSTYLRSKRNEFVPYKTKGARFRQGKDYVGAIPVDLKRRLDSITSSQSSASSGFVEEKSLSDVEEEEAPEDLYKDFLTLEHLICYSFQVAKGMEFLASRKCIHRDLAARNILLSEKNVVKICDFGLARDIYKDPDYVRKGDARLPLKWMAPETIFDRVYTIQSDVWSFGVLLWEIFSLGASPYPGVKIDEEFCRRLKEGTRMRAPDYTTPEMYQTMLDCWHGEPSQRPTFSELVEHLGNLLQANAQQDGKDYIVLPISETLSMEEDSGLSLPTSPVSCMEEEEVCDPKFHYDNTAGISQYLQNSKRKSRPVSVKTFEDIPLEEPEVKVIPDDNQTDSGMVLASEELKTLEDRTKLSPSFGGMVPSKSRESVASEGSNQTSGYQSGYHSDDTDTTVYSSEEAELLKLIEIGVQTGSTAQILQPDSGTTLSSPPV
Units for pIC50: none; it is -log10 of a concentration expressed in mol/L.

Study these solved cases before continuing.
- Compound: "O=C1Nc2ccccc2[C@]12C[C@H]2c1ccc2c(/C=C/c3ccc(CN4CCCCC4)cc3)n[nH]c2c1 (relative stereo)"
  pIC50: 7.92
- Compound: "O=C1Nc2ccccc2[C@]12C[C@H]2c1ccc2c(/C=C/c3ccc(CN4CCOCC4)cc3)n[nH]c2c1 (relative stereo)"
  pIC50: 5.85
- Compound: "COc1ccc2c(c1)[C@]1(C[C@H]1c1ccc3c(/C=C/c4ccc(CN5CCOCC5)cc4)n[nH]c3c1)C(=O)N2 (relative stereo)"
  pIC50: 4.62
- Compound: "CN(C)Cc1ccc(/C=C/c2n[nH]c3cc([C@@H]4C[C@@]45C(=O)Nc4ccc(OC(F)F)cc45)ccc23)cc1 (relative stereo)"
  pIC50: 5.31

Now look at this one.
Given `O=C1Nc2ccccc2/C1=C/c1ccc2cn[nH]c2c1` , respond with its pIC50. 5.60

###

target: Serine/threonine-protein kinase PLK4 (Homo sapiens, UniProt O00444)
Sequence (O00444 whole entry): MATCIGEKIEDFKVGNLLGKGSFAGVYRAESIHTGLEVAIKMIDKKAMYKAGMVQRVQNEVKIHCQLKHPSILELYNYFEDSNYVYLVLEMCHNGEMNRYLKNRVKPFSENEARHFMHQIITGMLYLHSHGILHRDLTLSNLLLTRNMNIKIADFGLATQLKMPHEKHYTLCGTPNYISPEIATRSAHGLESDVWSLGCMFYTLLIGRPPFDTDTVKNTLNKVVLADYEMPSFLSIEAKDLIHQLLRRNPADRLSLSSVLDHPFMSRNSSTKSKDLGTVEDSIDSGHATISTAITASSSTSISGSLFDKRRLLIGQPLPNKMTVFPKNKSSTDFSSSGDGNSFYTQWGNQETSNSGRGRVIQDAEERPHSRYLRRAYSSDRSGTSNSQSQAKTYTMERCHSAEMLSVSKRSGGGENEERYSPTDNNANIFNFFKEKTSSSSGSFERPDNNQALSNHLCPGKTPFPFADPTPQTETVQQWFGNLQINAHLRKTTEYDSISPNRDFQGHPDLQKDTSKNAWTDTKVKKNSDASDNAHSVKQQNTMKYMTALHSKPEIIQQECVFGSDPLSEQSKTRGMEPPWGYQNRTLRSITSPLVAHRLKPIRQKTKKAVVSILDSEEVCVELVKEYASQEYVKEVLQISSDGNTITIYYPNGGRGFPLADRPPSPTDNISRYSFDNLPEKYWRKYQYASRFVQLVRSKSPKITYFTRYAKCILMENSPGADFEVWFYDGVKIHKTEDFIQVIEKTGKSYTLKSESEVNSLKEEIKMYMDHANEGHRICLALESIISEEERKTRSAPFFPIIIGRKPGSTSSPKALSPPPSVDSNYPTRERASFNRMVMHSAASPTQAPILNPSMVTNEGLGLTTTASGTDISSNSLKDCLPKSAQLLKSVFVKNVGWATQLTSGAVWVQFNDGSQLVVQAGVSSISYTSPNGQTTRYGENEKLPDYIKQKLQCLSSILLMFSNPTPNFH
Reported metric: IC50 (nM)
Answer in nM, number only, no unit symbol.

Given `COc1ccc2c(c1)/C(=C\c1ccc3c(/C=C/c4ccc(N5CCN(C)CC5)nc4)n[nH]c3c1)C(=O)N2` , respond with its IC50. 7.3

###

molecular target: CYP2D6 (Homo sapiens); experiment: Inhibition of CYP2D6 (unknown origin) using AMMC substrate after 45 mins by fluorescence assay; format: ADME; details: probe AMMC
Sequence (P10635 whole entry): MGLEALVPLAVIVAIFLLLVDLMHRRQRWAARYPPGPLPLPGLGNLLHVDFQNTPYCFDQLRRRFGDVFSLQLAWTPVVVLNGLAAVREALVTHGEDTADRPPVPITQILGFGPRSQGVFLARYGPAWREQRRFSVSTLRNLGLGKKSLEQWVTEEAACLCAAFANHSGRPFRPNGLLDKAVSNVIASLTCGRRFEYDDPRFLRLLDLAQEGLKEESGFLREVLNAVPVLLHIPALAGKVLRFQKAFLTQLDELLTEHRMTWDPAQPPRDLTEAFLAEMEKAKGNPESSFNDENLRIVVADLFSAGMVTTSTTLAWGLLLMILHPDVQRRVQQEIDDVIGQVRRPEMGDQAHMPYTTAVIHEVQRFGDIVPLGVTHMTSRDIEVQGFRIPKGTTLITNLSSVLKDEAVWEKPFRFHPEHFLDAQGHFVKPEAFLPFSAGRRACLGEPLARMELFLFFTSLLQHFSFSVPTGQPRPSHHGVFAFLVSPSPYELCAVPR
Reported metric: IC50 at 45 min

Given `COc1ccc2c(c1)/C(=C\c1ccc3c(/C=C/c4ccc(N5CCN(C)CC5)nc4)n[nH]c3c1)C(=O)N2` , respond with its IC50 at 45 min. > 10 µM

###

experiment: AUC in SCID mouse at 25 mg/kg, po by LCMS/MS method; type: ADME, organism-based; design: dose 25 mg/kg, route oral; conditions: plasma
Parameter: AUC. Scope: all listed entries.
Answer in ng·h/mL, number only, no unit symbol.

Study these solved cases before continuing.
- Molecule: "COc1ccc2c(c1)[C@]1(C[C@H]1c1ccc3c(/C=C/c4ccc(CN5CCOCC5)cc4)n[nH]c3c1)C(=O)N2 (relative stereo)"
  AUC [ng·h/mL]: 4900
- Molecule: "O=C1Nc2ccccc2[C@]12C[C@H]2c1ccc2c(/C=C/c3cccnc3)n[nH]c2c1 (relative stereo)"
  AUC [ng·h/mL]: 93
- Molecule: "COc1ccc2c(c1)[C@]1(C[C@H]1c1ccc3c(/C=C/c4ccc(CN5CCCCC5)nc4)n[nH]c3c1)C(=O)N2 (relative stereo)"
  AUC [ng·h/mL]: 740
- Molecule: "O=C1Nc2ccccc2[C@]12C[C@H]2c1ccc2c(/C=C/c3ccncc3)n[nH]c2c1 (relative stereo)"
  AUC [ng·h/mL]: 650
- Molecule: "CN(C)Cc1ccc(/C=C/c2n[nH]c3cc([C@@H]4C[C@@]45C(=O)Nc4ccccc45)ccc23)cc1 (relative stereo)"
  AUC [ng·h/mL]: 310

Now look at this one.
Given O=C1Nc2ccccc2[C@]12C[C@H]2c1ccc2c(/C=C/c3ccc(CN4CCOCC4)cc3)n[nH]c2c1 (relative stereo) , respond with its AUC. 4300

src = ChEMBL document CHEMBL3351767
